Origin of values: ChEMBL document CHEMBL1201862

# Test system: HOP-62
# Measurement protocol: NCI tumour cell line growth inhibition, 48 h
Activity calls are given as the source filed them. No stated cut-off is given here; in the data, active = GI50 up to about 1.1 µM and inactive = higher.
Can you answer with just one of these options? active, inactive

Use the examples below as a reference point.
1. Cn1c(=O)sc2cc(C(=S)N3CCOCC3)ccc21 ... inactive
2. CC(=O)Nc1ccc(/C=C/C(=O)c2sc(-c3cccnc3)nc2C)cc1 ... inactive
3. ClC1=NN=C(c2c[nH]c3ccccc23)CC1NCc1ccccc1 (centres undefined) ... inactive

Recorded call for COc1cc(C2C3=C(CCC3=O)Oc3cc4c(cc32)OCO4)cc(OC)c1OC (centres undefined) ?
active

* * *

# System: HOP-62
# Measurement protocol: NCI tumour cell line growth inhibition, 48 h
The source made the active and inactive calls. Rule as the data show it: active = GI50 up to about 1.1 µM and inactive = higher.
Write down the outcome that applies. Available outcomes: T (active), F (inactive)

Worked examples, 5 molecules total:
1. CCCCCC(=O)OC[n+]1ccc2c(C)c3[nH]c4ccc(OC)cc4c3c(C)c2c1 ... T
2. CCCCCCCCCCCC(=O)OC[C@H](C[As](=O)(O)O)OC(=O)CCCCCCCCCCC ... F
3. CCOC(OC1=C(C#N)CCCC1)C(CC)[Se]c1ccccc1[N+](=O)[O-] (stereo not given) ... F
4. OC1OC2COC(c3ccccc3)OC2C(O)C1O (stereo not given) ... F
5. O=C1CSC2=NC3=C(COC/C3=C\c3ccc(F)cc3)C(c3ccc(F)cc3)N12 (stereo not given) ... F

For this molecule, state the assay outcome: CC[C@@H](/C=C\CCC1(C[C@H](O)CCC=C(C)C)OCCO1)O[Si](C(C)C)(C(C)C)C(C)C
F

What did this assay record as the result for N#Cc1nc(C(CO)N(Cc2ccccc2)C(=O)O)oc1N (stereo not given) ?
F

I would be grateful if you could indicate the recorded call for CC[C@@]1(O)C(=O)OCc2c1cc1n(c2=O)Cc2c-1nc1ccccc1c2/C=N\NC(=O)C(N)CS (stereo not given in full) .
T

Which result was noted for this molecule in the test: [N-]=[N+]=NC1(c2ccccc2)C(=O)c2cccc3c2N(CCC3)C1=O (stereo not given)
F

# fetch the recorded call for O=C1C=CC(=O)c2c(O)c(N(CCCl)CCCl)c(Cl)c(O)c21 here
F

* * *

# System: MCF7
# Measurement protocol: NCI tumour cell line growth inhibition, 48 h
Calls of active or inactive are those of the source. Cut-off read from the data, not from the text of the source: active = GI50 up to about 1.1 µM and inactive = higher.
Permitted responses: active, inactive

1. CN(C)CCCOC(=O)C(O)(Cc1ccccc1)C1CC1 (stereo unspecified) ... inactive
2. O=S(=O)(N=S(c1ccc(Cl)cc1)c1ccc(Cl)cc1)c1ccccc1 ... inactive
3. COc1cccc(-n2nnc3c(N)nc(N)nc32)c1 ... inactive
4. C/C=C1\CC2C(=O)CCC2C2c3ccccc3OC12 (stereo unspecified) ... inactive
5. C=CCCC(=O)CC(O)(C(F)(F)F)C(F)(F)F ... inactive

Could you please tell me the result logged for NC1(c2cc3ccccc3s2)CCCC1 in this assay?
inactive

Please state the recorded outcome for this compound: CCOCc1c(C)cc(C)c(C2C(C(=O)c3ccccc3)N3c4ccccc4C=CC3C2(C#N)C(=O)OCC)c1C (stereo unspecified)
inactive

Which result was noted for this compound in the test: Cc1ccccc1-n1c(=O)c2ncn(CCCl)c2n(-c2ccccc2C)c1=S
inactive

For this compound, state the assay outcome: Nc1c2c(nc3ccccc13)-c1ccccc1NCCC2
inactive

State the result this test recorded for COc1ccc(C2(CC(C)O)SCCCS2)cc1 (stereo unspecified) .
inactive

What classification did c1ccc2c(c1)CCCN1CCc3ccccc3C21 (stereo unspecified) end up with in this test?
inactive

Given O=C(/C=C\c1ccc([N+](=O)[O-])cc1)c1ccccc(=O)c1O , state the outcome it received in this test.
active
